MIC reference
- Test system: Staphylococcus aureus MS353
readoutName: MIC

# compound, studySystem, readoutName, reading
data = [
    ("CC[C@H]1OC(=O)[C@H](C)[C@@H](O[C@H]2C[C@@](C)(OC)[C@@H](O)[C@H](C)O2)[C@H](C)[C@@H](O[C@@H]2O[C@H](C)C[C@H](N(C)C)[C@H]2O)[C@](C)(O)C[C@@H](C)C(=O)[C@H](C)[C@@H](O)[C@]1(C)O [erythromycin]", "Staphylococcus aureus MS353", "MIC", "0.1 µg/mL"),
    ("CCC1OC(=O)CC(O)C(C)C(OC2OC(C)CC(N(C)C)C2O)C(C)CC(C)C(=O)C=CC(C)=CC1COC1OC(C)C(O)C(OC)C1OC (centres unmarked) [Compound [1] R1 = H, 19-deformyl-4'-deoxy-desmycosin]", "Staphylococcus aureus MS353", "MIC", "≤ 0.05 µg/mL"),
    ("CCC1OC(=O)CC(O)C(C)C(OC2OC(C)C(O)C(N(C)C)C2O)C(C)CC(C)C(=O)C=CC(C)=CC1COC1OC(C)CC(OC)C1OC (centres unmarked) [Compound [1] R1 = OH, 19-deformyl-4\"-deoxy-desmycosin]", "Staphylococcus aureus MS353", "MIC", "≤ 0.05 µg/mL"),
    ("CCC1OC(=O)CC(O)C(C)C(OC2OC(C)C(O)C(N(C)C)C2O)C(CC=O)CC(C)C(=O)/C=C/C(C)=C/C1COC1OC(C)C(O)C(OC)C1OC (centres unmarked) [descomycin, 4'-demycarosyl tylosin]", "Staphylococcus aureus MS353", "MIC", "0.8 µg/mL"),
    ("CO[C@@H]1[C@@H](O[C@@H]2O[C@H](C)[C@@H](O[C@H]3C[C@@](C)(O)[C@@H](OC(=O)CC(C)C)[C@H](C)O3)[C@H](N(C)C)[C@H]2O)[C@@H](CC=O)C[C@@H](C)[C@@H](O)/C=C/C=C/C[C@@H](C)OC(=O)C[C@H]1OC(C)=O [josamycin]", "Staphylococcus aureus MS353", "MIC", "0.8 µg/mL"),
]

Data provenance is patent US4415730A.
